- System: CEM cells HIV-1 protection, formazan growth assay
- assayRemarks: NCI AIDS Antiviral Assay
Consider the following molecules; for each one, report its EC50.

Some solved cases for reference:
[
  {
    "molecule": "[N-]=[N+]=NCCOCn1ccc(=O)[nH]c1=O",
    "targetSystem": "CEM cells HIV-1 protection, formazan growth assay",
    "EC50": "> 200 µM"
  },
  {
    "molecule": "Cc1cc(C)c(-n2c(-c3ccccc3)cs/c2=N\\N=C2C=C(C(C)(C)C)C(=O)C(C(C)(C)C)=C2)c(C)c1",
    "targetSystem": "CEM cells HIV-1 protection, formazan growth assay",
    "EC50": "> 14.1 µM"
  }
]

Provide the reported EC50 of each entry below, same order.
1. O=C(O)c1ccccc1SCc1cc(O)ccc1O
2. COC(=O)c1cccc2cccc(C(=O)Nc3ccc(Cl)cc3)c12
3. COC1(OC)CC(CO)(CNc2nc(N)nc(Cl)c2C=O)C1
4. CN1CCCCC(C(O)(c2ccccc2)c2ccccc2)C1=O (configuration not stated)
5. NC(=O)C(=CNC(=S)Nc1ccc(Cl)c(Cl)c1)C(N)=O

> 200 µM
> 11.2 µM
> 162 µM
> 115 µM
> 200 µM

====

Field: pIC50. Provide a value for each of the molecules that follow.
- System: CEM cells HIV-1 protection, formazan growth assay
- assayRemarks: NCI AIDS Antiviral Assay
- conditions: measured here: growth of uninfected CEM cells
Numbers only, as −log10 of the molar value.

[
  {
    "molecule": "COC(=O)C(=O)C(C(=O)C(=O)Nc1ccc([N+](=O)[O-])cc1)c1nc2ccccc2[nH]c1=O (stereo not given)",
    "pIC50": 4.14
  },
  {
    "molecule": "COc1ccc(-c2c(C#N)c(-c3ccccc3)n(NS(=O)(=O)c3ccccc3)c(=O)c2C#N)cc1",
    "pIC50": 4.35
  },
  {
    "molecule": "CC(=O)N[C@H]1CC2(C=C(Br)C(=O)C(Br)=C2)OC1=O",
    "pIC50": 5.29
  }
]

I would be grateful if you could provide pIC50 for each of the following entries.
1. CC(C)(C)N1COCO[C@H]2CCC[C@@H]21
2. N#Cc1c(CC(=O)O)cc(=O)n2c1[nH]c1ccccc12
3. Fc1cccc(F)c1C1SCc2nc3cc(Cl)c(Cl)cc3n21 (stereo not given)
4. COc1ccc(C=O)cc1Oc1ccc(C[C@H]2c3c(cc(OC)c4c3Oc3cc5c(cc3O4)CCN(C)C5=O)CCN2C)cc1
5. Cc1oc2c(c1C(=O)c1ccccc1)C(=O)c1ccccc1C2=O
6. CC1(C)CC(=O)c2c([nH]c(=S)c(C#N)c2-c2ccc(Br)cc2)C1
7. CC(=O)NCCc1c[nH]c2ccc(Cl)cc12
8. O=c1cc(-c2ccccc2)oc2ccccc12

3.73
3.50
3.71
5.01
4.93
4.36
3.71
4.12

====

- Tested on: CEM cells HIV-1 protection, formazan growth assay
- assayRemarks: NCI AIDS Antiviral Assay
- conditions: measured here: growth of uninfected CEM cells
pIC50: −log10 of the molar value.
Hi there, I'd appreciate the recorded pIC50 for every entry that follows.

Parameters: items (list). Returns: pIC50 for each item.
1. CCOP(=O)(OCC)C(C(=O)OC)C(=O)C(=O)Nc1cccc(O)c1 (stereo not drawn)
2. CC1(C)CC(/C=C2/OC(=O)c3ccccc32)=C(C(N)=O)C(=O)O1
3. Nc1c(-c2nc3ccccc3[nH]2)sc(=S)n1-c1ccc(Cl)cc1

["< 3.17", "< 4.08", "< 4.84"]

====

- Tested on: CEM cells HIV-1 protection, formazan growth assay
- assayRemarks: NCI AIDS Antiviral Assay
pEC50: −log10 of the molar value.
Consider the following compounds; for each one, report its pEC50.

In the examples that follow, each entry is paired with its recorded pEC50.
[
  {
    "compound": "COc1ccc(SS(=O)(=O)c2ccc(OC)cc2)cc1",
    "pEC50": "< 4.25"
  },
  {
    "compound": "O=C1NC2C3CC(OCc4ccccc4)(OCc4ccccc4)C2OC3O1 (centres undefined)",
    "pEC50": "< 4.01"
  },
  {
    "compound": "CN(C)CCc1ccc(Cl)cc1Cl",
    "pEC50": "< 3.01"
  },
  {
    "compound": "OC12c3ccccc3C3CCC4(OCCO4)C3C1c1ccccc12 (centres undefined)",
    "pEC50": "< 3.70"
  },
  {
    "compound": "CN(C)c1ccc(/C=C(\\C#N)c2ccc(F)cc2F)cc1",
    "pEC50": "< 3.70"
  }
]

Quick request: pEC50 for each listed item, please.
1. CCOP(=O)(OCC)OC1C=CC2CCC1C2 (centres undefined)
2. COc1ccc(C2c3cc4c(cc3OC3(OC)COC(=O)C23)OCO4)c(OC)c1 (centres undefined)
3. Cc1cc(C)nc(NS(=O)(=O)c2ccc(NNC(=O)c3cccc4c(=O)c5ccccc5[nH]c34)cc2)n1
4. O=C(CC1(O)C(=O)Nc2ccc([N+](=O)[O-])cc21)c1ccc(Br)cc1 (centres undefined)

1: < 3.72; 2: < 4.00; 3: < 3.70; 4: < 4.38

====

- System: CEM cells HIV-1 protection, formazan growth assay
- assayRemarks: NCI AIDS Antiviral Assay
- conditions: measured here: growth of uninfected CEM cells
Where a SMILES comes first, the peptide text is derived from it. Bridges are numbered along the chain shown (N, C = ends). [ ]: non-standard residue; d: D form. The star is where a group is joined. ξ: configuration not given here. PhAc = O=C(Cc1ccccc1)*; ξP = O=C(O)C1CCCN1
reportedMetric: IC50

// solved cases for IC50 follow
[
  {
    "compound": "O=C(Cc1ccccc1)N[C@@H]1COC(=O)C2CCCN2C(=O)[C@@H]2CCCN2C1=O (some centres undefined) (PhAc-[dS]-Pro-[ξP]; ester 1-C)",
    "IC50": "> 200 µM"
  },
  {
    "compound": "O=C(N=C1[Se]C(=Nc2ccccc2)C(=Nc2ccccc2)N1c1ccccc1)c1ccc([N+](=O)[O-])cc1",
    "IC50": "> 200 µM"
  },
  {
    "compound": "C/C(=N/Nc1ccc([N+](=O)[O-])cc1[N+](=O)[O-])C(CC(C(=O)Nc1ccccc1C)/C(C)=N\\Nc1ccc([N+](=O)[O-])cc1[N+](=O)[O-])C(=O)Nc1ccccc1C (centres undefined)",
    "IC50": "> 9.55 µM"
  }
]

Now for a further compound.
Reported IC50 for COc1ccc(C2=NN(C(=O)COc3ccc(Cl)cc3)C(O)(c3ccc(Cl)cc3)C2)cc1 (centres undefined) : what is it?
> 11 µM

====

- System: CEM cells HIV-1 protection, formazan growth assay
- assayRemarks: NCI AIDS Antiviral Assay;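 active = compounds giving half or more protection of infected cells from virus-caused growth loss, again on retest; inactive = the rest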
Choose one outcome from this list and give only that: active, inactive

[
  {
    "compound": "O=c1[nH]c2cc([N+](=O)[O-])ccc2nc1/C(=N/Nc1ccccc1)C(O)c1ccccc1Cl (stereo not given)",
    "label": "inactive"
  },
  {
    "compound": "Clc1ccc(OC2CCO2)cc1Cl (stereo not given)",
    "label": "inactive"
  },
  {
    "compound": "COc1cccc(CN2CCN(/N=C/c3c4c(O)c5c(O)c(C)c6c(c5c3O)C(=O)C(C)(O/C=C/C(OC)C(C)C(OC(C)=O)C(C)C(O)C(C)C(O)C(C)/C=C/C=C(C)C(=O)N4)O6)CC2)c1 (stereo not given)",
    "label": "inactive"
  }
]

Call for entry Cc1csc(=S)n1OC(=O)NC1CCCCC1 :
inactive

====

Please provide measured EC50 for the entries that follow.
- Tested on: CEM cells HIV-1 protection, formazan growth assay
- assayRemarks: NCI AIDS Antiviral Assay
Where a SMILES comes first, the peptide text is derived from it. The star is where a group is joined. Boc = CC(C)(C)OC(=O)*; OBn = c1ccc(CO*)cc1

In the examples that follow, each entry is paired with its recorded EC50.
[
  {
    "compound": "CCc1cc2c(Nc3ccccc3)c3c(nc2s1)CCCC3",
    "targetSystem": "CEM cells HIV-1 protection, formazan growth assay",
    "observedMeasurement": "> 85.1 µM"
  },
  {
    "compound": "CC(NC(=O)CNC(=O)OC(C)(C)C)C(=O)NC(Cc1ccccc1)C(=O)OCc1ccccc1 (stereo not drawn) (Boc-Gly-Ala-Phe-OBn; configuration not given here)",
    "targetSystem": "CEM cells HIV-1 protection, formazan growth assay",
    "observedMeasurement": "> 200 µM"
  },
  {
    "compound": "O=C(Nc1cccc2nsnc12)c1ccc(C(=O)Nc2cccc3nsnc23)cc1",
    "targetSystem": "CEM cells HIV-1 protection, formazan growth assay",
    "observedMeasurement": "> 22.9 µM"
  }
]

Batch: EC50 for all items listed.
1. O=C(O)CC1OCC=C2CN3CCC45C6=CC(=O)C(=O)C([N+](=O)[O-])=C6NC4C1C2CC35 (stereo unspecified)
2. CCOC(=O)N[C@@H]1C(CC(=O)OC)O[C@H]2OC(C)(C)O[C@H]21 (stereo partly specified)
3. COP(=O)(OC)C(Cc1cn(C(C)=O)c2ccccc12)C(=O)O (stereo unspecified)

> 200 µM
> 832 µM
> 200 µM

Ref: PubChem BioAssay AID179
